Reference for the values: the supplement of paper PMC10567573

B1: CDKL4 (parent)
chain: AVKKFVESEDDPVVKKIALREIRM

Variants of: B1
methodSummary: protein stability index of a GFP-peptide fusion (GPS, HEK-293T) (PSI 1-6); higher = more stable;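 further: lentivirally expressed fusions sorted by FACS into six bins by GFP to DsRed ratio, PSI derived from sequencing read proportions per bin multiplied by bin number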
particulars: c terminus: a fixed tail appended
The following variants are shown together with reported protein stability index values.

- sequenceInput: "AVKNFVESEDDPVVKKIALREIRM [K4N]"
  protein stability index: 2.92
- sequenceInput: "AVKKFVESEDDPVVKKWALREIRM [I17W]"
  protein stability index: 2.15
- sequenceInput: "AVKKEVESEDDPVVKKIALREIRM [F5E]"
  protein stability index: 3.94
- sequenceInput: "AVKKFVESEDDPVVKMIALREIRM [K16M]"
  protein stability index: 3.17
- sequenceInput: "AVKKFVESEPDPVVKKIALREIRM [D10P]"
  protein stability index: 2.72
- sequenceInput: "AVKKFVESEDDPVVKKIALIEIRM [R20I]"
  protein stability index: 1.39
- sequenceInput: "AVKMFVESEDDPVVKKIALREIRM [K4M]"
  protein stability index: 2.34
- sequenceInput: "AVKKFVESEDDPVVKKIAWREIRM [L19W]"
  protein stability index: 3.15
- sequenceInput: "AVKKFVEVEDDPVVKKIALREIRM [S8V]"
  protein stability index: 2.64
- sequenceInput: "AVKKFVESEDDPVVKKIMLREIRM [A18M]"
  protein stability index: 1.94
- sequenceInput: "AVKKHVESEDDPVVKKIALREIRM [F5H]"
  protein stability index: 3.24
- sequenceInput: "AVKKFVESEDDPVVMKIALREIRM [K15M]"
  protein stability index: 1.87
- sequenceInput: "AVKKFVQSEDDPVVKKIALREIRM [E7Q]"
  protein stability index: 2.54
- sequenceInput: "MVKKFVESEDDPVVKKIALREIRM [A1M]"
  protein stability index: 2.69
- sequenceInput: "AVKKFVESEDDPVVKKIALREIFM [R23F]"
  protein stability index: 1.93
- sequenceInput: "AVKKFVESEDDPVVKKNALREIRM [I17N]"
  protein stability index: 3.7
- sequenceInput: "AVKKFVESHDDPVVKKIALREIRM [E9H]"
  protein stability index: 2.71
- sequenceInput: "AVKKFVESEDDPVVKKIALREIQM [R23Q]"
  protein stability index: 3.29
- sequenceInput: "AVKKFVESEDDPVVKKTALREIRM [I17T]"
  protein stability index: 4.48
- sequenceInput: "AVKKFVESEDDPVVKIIALREIRM [K16I]"
  protein stability index: 2.19
- sequenceInput: "AVKKFVEYEDDPVVKKIALREIRM [S8Y]"
  protein stability index: 3.17
- sequenceInput: "AVKKFVESEDDPVVKKIPLREIRM [A18P]"
  protein stability index: 3.57
- sequenceInput: "AVKEFVESEDDPVVKKIALREIRM [K4E]"
  protein stability index: 3.55
- sequenceInput: "AVKKFVESEDDPVVKSIALREIRM [K16S]"
  protein stability index: 3.23
- sequenceInput: "AVKKFVESEDDPVVKKIALDEIRM [R20D]"
  protein stability index: 3.56
- sequenceInput: "AVKKFVESEDDMVVKKIALREIRM [P12M]"
  protein stability index: 1.95
- sequenceInput: "AVKKFVESEDDPVVKKIALFEIRM [R20F]"
  protein stability index: 1.5
- sequenceInput: "AVKKFVESEDDPVVKEIALREIRM [K16E]"
  protein stability index: 3.95
- sequenceInput: "AVKKFGESEDDPVVKKIALREIRM [V6G]"
  protein stability index: 3.33
- sequenceInput: "AVKKFVENEDDPVVKKIALREIRM [S8N]"
  protein stability index: 3.32
- sequenceInput: "AVKKFVESEDDPVVPKIALREIRM [K15P]"
  protein stability index: 3.46
- sequenceInput: "AVKKFVESELDPVVKKIALREIRM [D10L]"
  protein stability index: 1.68
- sequenceInput: "AVKKFVESEDMPVVKKIALREIRM [D11M]"
  protein stability index: 2.44
- sequenceInput: "AVKKFVESEDDPVVKKIALREIWM [R23W]"
  protein stability index: 2.03
- sequenceInput: "AVKKFVESEDDPVVKKIALREIRT [M24T]"
  protein stability index: 3.15
- sequenceInput: "AVKKFVESEDDPVVKKIALTEIRM [R20T]"
  protein stability index: 2.88
- sequenceInput: "AVCKFVESEDDPVVKKIALREIRM [K3C]"
  protein stability index: 2.66
- sequenceInput: "AVKKLVESEDDPVVKKIALREIRM [F5L]"
  protein stability index: 2.98
- sequenceInput: "AVKKFVESFDDPVVKKIALREIRM [E9F]"
  protein stability index: 2.09
- sequenceInput: "QVKKFVESEDDPVVKKIALREIRM [A1Q]"
  protein stability index: 3.3
- sequenceInput: "AVKKFVESEDTPVVKKIALREIRM [D11T]"
  protein stability index: 3
- sequenceInput: "AVKKFVESEDDPVVKKIALREIVM [R23V]"
  protein stability index: 1.44
- sequenceInput: "CVKKFVESEDDPVVKKIALREIRM [A1C]"
  protein stability index: 2.48
- sequenceInput: "AVKKFVESEDDPVVKKIALREIDM [R23D]"
  protein stability index: 3.95
- sequenceInput: "AVKKGVESEDDPVVKKIALREIRM [F5G]"
  protein stability index: 4.28
- sequenceInput: "AVKKFVESETDPVVKKIALREIRM [D10T]"
  protein stability index: 2.78
